Test System: IgE of patient serum 5
Run Description: ELISA inhibition, serum 5 pre-incubated with 1.25 µg/ml inhibitor; competitor: wt Mal d 1 adsorbed on wells
Readout: % inhibition of Mal d 1-IgE binding (%)
Numbers only, in %.

Challenge: Name the recorded % inhibition of Mal d 1-IgE binding of the binder listed here: wild-type Bet v 1-Mal d 1 hybrid molecule (SEQ ID NO: 3) (protein) HHHHHHGVFNYETETTSVIPAARLFKAFILDGDNLFPKVAPQAISSVENIEGNGGPGTIKKISFPEGFPFKYVKDRVDEVDHTNFKYNYSVIEGGPIGDTLEKISNEIKIVATPDGGSILKINNKYHTKGDHEVKAEQIKASKEMGETLLRAVESYLLAHSDAYNEFGVYTFENEFTSEIPPSRLFKAFVLDADNLIPKIAPQAIKQAEILEGDGGPGTIKKITFGEGSQYGYVKHKIDSVDEANYSYAYTLIEGDALTDTIEKVSYETKLVASGSGSIIKSISHYHTKGDVEIKEEHVKAGKEKAHGLFKLIESYLKGHPDAYN
Response given: 68
